# Target: human synovial collagenase (Homo sapiens)
# Construct: endogenous in cells; host or cells: primary human synovial cells from a knee synovectomy, stimulated with SK Hepatoma conditioned medium
# Sequence (P03956 100-469): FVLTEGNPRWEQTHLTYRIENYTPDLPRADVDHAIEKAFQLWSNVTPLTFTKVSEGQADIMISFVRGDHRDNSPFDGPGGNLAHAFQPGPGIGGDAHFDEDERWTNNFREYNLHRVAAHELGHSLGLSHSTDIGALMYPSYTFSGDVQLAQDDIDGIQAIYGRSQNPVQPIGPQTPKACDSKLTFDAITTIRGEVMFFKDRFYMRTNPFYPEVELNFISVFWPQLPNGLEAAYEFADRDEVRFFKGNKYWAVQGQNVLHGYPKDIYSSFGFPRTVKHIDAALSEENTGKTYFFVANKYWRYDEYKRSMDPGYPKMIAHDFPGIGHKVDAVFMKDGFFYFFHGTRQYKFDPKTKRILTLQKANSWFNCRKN
# Experimental protocol: Collagenase inhibition test (14C-collagen assay), synovial collagenase
# Assay type: biochemical
# Experimental setup: 0.50 M NaCl, 0.01 M CaCl2, 0.05 M Tris, pH 7.5, 35° C.; Dixon plot, single substrate concentration 10 μM collagen
Where a SMILES comes first, the peptide text is derived from it. The star is where a group is joined. Cbz = O=C(OCc1ccccc1)*; NHOH = ON*
Measured log10 Ki by item
Result type: log10 Ki (log10 of the value in µM)

Compound	Target	log10 Ki
O=C(CNC(=O)OCc1ccccc1)NO	human synovial collagenase (Homo sapiens)	2.98
CSCCC(NC(=O)OCc1ccccc1)C(=O)NCC(=O)NO (centres unmarked)	human synovial collagenase (Homo sapiens)	2.30
CC(C)C[C@H](NC(=O)[C@@H]1CCCN1C(=O)OCc1ccccc1)C(=O)NCC(=O)NO [Z--Pro--Leu--Gly--NHOH] (Cbz-Pro-Leu-Gly-{NHOH})	human synovial collagenase (Homo sapiens)	1.67
NCC(=O)NO	human synovial collagenase (Homo sapiens)	4.26
CC(C)CC(NC(=O)OCc1ccccc1)C(=O)NCC(=O)NO (centres unmarked)	human synovial collagenase (Homo sapiens)	2.23

* * *

# Target: human skin fibroblast collagenase (Homo sapiens, UniProt P03956)
# Construct: active collagenase isolated by this method consisted of two bands, a major species with molecular weight 45,000
# Sequence (P03956 100-469): as above
# Experimental protocol: Collagenase inhibition test (14C-collagen assay), skin fibroblast collagenase
# Experimental setup: 0.50 M NaCl, 0.01 M CaCl2, 0.05 M Tris, pH 7.5, 35° C.; Dixon plot, single substrate concentration 10 μM collagen
# Description: ^14 C-collagen was prepared by reductive methylation of calf skin collagen at 4° C. using ^14 C-formaldehyde and sodium borohydride. […] Collagenase asays were carried out according to the method of Terato et al., Biochim. […] Following centrifugation at 11,000 RPM, 350 μl aliquots were added to 5.0 ml of Pico-Fluor 30 to determine radioactivity. […]
pKi: −log10 of the molar value. Where a SMILES comes first, the peptide text is derived from it. The star is where a group is joined. Cbz = O=C(OCc1ccccc1)*; NHOH = ON*
// reported pKi for each item listed
Result type: pKi

Molecule	Value modifier	Value measured
CSCCC(NC(=O)OCc1ccccc1)C(=O)NCC(=O)NO (stereo not drawn) [Z--Met--Gly--NHOH]	=	3.82
CC(NC(=O)OCc1ccccc1)C(=O)NCC(=O)NO (stereo not drawn) [Z--Ala--Gly--NHOH]	=	2.89
CC(C)CC(NC(=O)OCc1ccccc1)C(=O)NCC(=O)NO (stereo not drawn) [Z--Leu--Gly--NHOH]	=	3.32
NCC(=O)NO [Gly--NHOH]	<	3.00
O=C(CNC(=O)C(Cc1ccccc1)NC(=O)OCc1ccccc1)NO (stereo not drawn) [Z--Phe--Gly--NHOH]	=	3.82
CC(C)C[C@H](NC(=O)[C@@H]1CCCN1C(=O)OCc1ccccc1)C(=O)NCC(=O)NO [Z--Pro--Leu--Gly--NHOH] (Cbz-Pro-Leu-Gly-{NHOH})	=	4.40
CC(C)C[C@H](NC(=O)OCc1ccccc1)C(=O)N[C@@H](CC(C)C)C(=O)NCC(=O)NO [Z--Leu--Leu--Gly--NHOH] (Cbz-Leu-Leu-Gly-{NHOH})	=	3.52
O=C(CNC(=O)CNC(=O)OCc1ccccc1)NO [Z--Gly--Gly--NHOH] (Cbz-Gly-Gly-{NHOH})	=	2.52
O=C(CNC(=O)OCc1ccccc1)NO [Z--Gly--NHOH]	=	3.22

These data points were gathered from patent US4720486A.
